Sourced from ChEMBL document CHEMBL3988442

# target.or.test.system: Tyrosyl-tRNA synthetase, putative (Trypanosoma cruzi (strain CL Brener))
# protocol.details: Trypanosoma cruzi tyrosyl tRNA synthetase (TcYRS) _High Tyrosine SOP; further: in the data most compounds retested in dose-response had high values
# Format: functional
# Parameters: scale not given: direction of the effect not stated beside the values
# study.conditions: 30 µM
value.type: Percent Effect (%)
Quick note: give the figure in %, leave out the unit.

These solved cases illustrate the format of a correct answer.
{"compound": "Cc1nc(CN2CCc3ncnc(-c4ccc(F)cc4)c3CC2)cs1", "target.or.test.system": "Tyrosyl-tRNA synthetase, putative (Trypanosoma cruzi (strain CL Brener))", "value.type": "Percent Effect", "meas.value": 5.41}
{"compound": "c1ncn(CC2CN(CC3CCCC3)CCO2)n1 (centres undefined)", "target.or.test.system": "Tyrosyl-tRNA synthetase, putative (Trypanosoma cruzi (strain CL Brener))", "value.type": "Percent Effect", "meas.value": 0}
{"compound": "c1ccc2oc(CCCN3CCCC3Cn3cncn3)nc2c1 (centres undefined)", "target.or.test.system": "Tyrosyl-tRNA synthetase, putative (Trypanosoma cruzi (strain CL Brener))", "value.type": "Percent Effect", "meas.value": 7.92}

Please look up its Percent Effect: O=C(NC1CC1)[C@H]1C[C@H]2OCC[C@H]2N(CC2CCOCC2)C1
5.21

Same for CCc1cc(NC2CCN(S(C)(=O)=O)CC2)n2nc(C)c(C)c2n1
-10.5

Same for Cc1cccc(-c2[nH]ncc2CNCC2CCN(CC(C)O)CC2)c1 (centres undefined)
5.42

Same for CC(C(=O)NCc1ccnc(N(C)C)c1)n1cncn1 (centres undefined)
5.82

Same for COCc1ccccc1CNc1nnc(C)c(C)c1C#N
4.95

Same for O=C(c1ccc(C2CCCO2)s1)N1CCN(c2ccccc2F)CC1 (centres undefined)
5.82

Same for COc1ccc(CN(C)CC2CCCN2c2cccnn2)cc1F (centres undefined)
7.62

Same for Cc1nc(CN2CCCC(N(C)Cc3c(C)noc3C)C2)no1 (centres undefined)
1.91

Same for O=C(CCc1cccs1)N1CCC(Nc2cccnn2)CC1
9.36

Same for c1ccc(Cn2cccn2)c(CNCC2CNc3ccnn3C2)c1 (centres undefined)
16.5

---

# target.or.test.system: Arginase-2, mitochondrial (Homo sapiens) (UniProt P78540)
# Sequence (whole entry): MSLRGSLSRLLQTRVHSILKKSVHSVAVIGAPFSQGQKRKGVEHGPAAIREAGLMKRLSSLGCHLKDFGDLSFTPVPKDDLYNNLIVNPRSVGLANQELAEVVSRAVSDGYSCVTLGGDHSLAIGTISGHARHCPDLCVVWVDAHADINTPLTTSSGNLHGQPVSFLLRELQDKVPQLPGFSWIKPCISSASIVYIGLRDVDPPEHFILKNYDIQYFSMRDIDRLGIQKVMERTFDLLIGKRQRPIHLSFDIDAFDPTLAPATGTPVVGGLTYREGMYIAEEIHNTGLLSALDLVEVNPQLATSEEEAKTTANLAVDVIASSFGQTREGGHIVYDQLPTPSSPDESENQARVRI
# protocol.details: in vitro enzyme assay to detect the production of urea directly proportional to the activity of Arginase II; further: in the data most compounds retested in dose-response had high values
# Format: functional
# Set-up: scale not given: direction of the effect not stated beside the values
# study.conditions: 33.3 µM
value.type: Percent Effect (%)
Quick note: give the figure in %, leave out the unit.

{"compound": "CN(CC(=O)NC1(C#N)CCCC1)C1CCCN(c2cccnn2)C1 (stereo unspecified)", "meas.value": 2.16}
{"compound": "O=C(C1CCOCC1)N1CCC2(CC1)CC(Oc1ccccc1)CO2 (stereo unspecified)", "meas.value": -5.59}
{"compound": "CC(C)N(C)C(=O)C1=NOC2(CCN(C(=O)c3ccc(Cl)cc3)C2)C1 (stereo unspecified)", "meas.value": -1.6}
{"compound": "Fc1ccc(CN2CCCN(Cc3cscn3)CC2)cc1", "meas.value": 1.05}
{"compound": "Cc1noc(C)c1CCC(=O)N1CCN(CCn2cncn2)CC1", "meas.value": 1.77}
{"compound": "Cc1ccc(CN(Cc2c[nH]cn2)C2CC(C)(C)NC(C)(C)C2)o1", "meas.value": -1.62}
{"compound": "Cc1ccc(C(CNCc2cnn(C(C)C)c2)N2CCOCC2)s1 (stereo unspecified)", "meas.value": -2.5}
{"compound": "CO[C@H]1CCN(S(=O)(=O)c2cn(C)cn2)[C@H]1Cc1cccnc1", "meas.value": -49.6}

Given the entry CCOc1cccc(NS(=O)(=O)c2cc(C)c(C(=O)O)s2)c1 , what Percent Effect was observed with Arginase-2, mitochondrial (Homo sapiens) (UniProt P78540)?
19.1

Same for Cc1cc(CNC(=O)NC(C)c2ccncc2)no1 (stereo unspecified)
-1.38

Same for CS(=O)(=O)NC1CCN(C(=O)NCCNc2ccccn2)CC1
3.14

---

Collected Percent Effect values appear next to each entry.
# target.or.test.system: Ubiquitin-activating enzyme e1, putative (Leishmania donovani (strain BPK282A1)) (UniProt E9BSI1)
# Sequence (E9BSI1 as listed by the source): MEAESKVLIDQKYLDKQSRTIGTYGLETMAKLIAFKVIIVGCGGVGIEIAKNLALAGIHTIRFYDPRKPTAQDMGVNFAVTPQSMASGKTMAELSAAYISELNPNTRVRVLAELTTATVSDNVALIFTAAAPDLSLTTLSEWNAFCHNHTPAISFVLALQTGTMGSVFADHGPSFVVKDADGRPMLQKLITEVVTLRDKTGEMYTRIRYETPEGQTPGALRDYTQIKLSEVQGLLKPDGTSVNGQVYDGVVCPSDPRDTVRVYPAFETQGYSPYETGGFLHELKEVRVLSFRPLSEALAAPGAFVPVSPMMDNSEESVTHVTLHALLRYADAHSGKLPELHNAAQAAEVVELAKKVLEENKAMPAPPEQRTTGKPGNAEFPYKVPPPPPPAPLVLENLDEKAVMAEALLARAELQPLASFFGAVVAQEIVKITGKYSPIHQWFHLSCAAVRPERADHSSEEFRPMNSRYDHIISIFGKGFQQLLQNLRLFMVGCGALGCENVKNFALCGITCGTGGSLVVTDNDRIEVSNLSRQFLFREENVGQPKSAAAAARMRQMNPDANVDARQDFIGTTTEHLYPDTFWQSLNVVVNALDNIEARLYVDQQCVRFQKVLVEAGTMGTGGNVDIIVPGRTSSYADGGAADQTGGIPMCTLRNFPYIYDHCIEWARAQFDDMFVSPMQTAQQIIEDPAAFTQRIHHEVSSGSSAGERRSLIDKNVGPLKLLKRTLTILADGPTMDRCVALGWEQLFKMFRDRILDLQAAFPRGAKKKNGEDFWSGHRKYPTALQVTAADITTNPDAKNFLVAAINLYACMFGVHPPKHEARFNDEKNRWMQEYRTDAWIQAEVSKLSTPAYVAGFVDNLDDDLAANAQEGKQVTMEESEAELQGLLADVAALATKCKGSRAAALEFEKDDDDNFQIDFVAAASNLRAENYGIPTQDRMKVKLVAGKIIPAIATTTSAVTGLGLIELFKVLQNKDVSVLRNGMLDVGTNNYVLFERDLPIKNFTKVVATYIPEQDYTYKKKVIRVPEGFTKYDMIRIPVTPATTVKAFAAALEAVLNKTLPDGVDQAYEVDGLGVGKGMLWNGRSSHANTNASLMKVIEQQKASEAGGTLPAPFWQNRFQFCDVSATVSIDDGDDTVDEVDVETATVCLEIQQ
# protocol.details: Leishmania donovani Ubiquitin Activating Enzyme (LdE1)
# Format: functional
# Set-up: scale not given: direction of the effect not stated beside the values
# study.conditions: 30 µM
Potency and affinity values are given separately.
Quick note: give the figure in %, leave out the unit.

These solved cases illustrate the format of a correct answer.
{"compound": "CCOCC(=O)NC1(c2cccc(Br)c2)CC1", "Percent Effect / %": 0}
{"compound": "Cc1ccc(C(=O)NCCCNS(C)(=O)=O)c(=O)[nH]1", "Percent Effect / %": 16.2}
{"compound": "CCc1n[nH]c(C2CN(Cc3nccn3CC)CCO2)n1 (stereo not given)", "Percent Effect / %": 20.8}
{"compound": "Cc1n[nH]c(C)c1NC(=O)CN1CCCC(CNC(=O)C(C)(C)C)C1 (stereo not given)", "Percent Effect / %": 2.63}
{"compound": "CCc1noc(C2CCCCN2C(=O)c2nnc3ccccc3n2)n1 (stereo not given)", "Percent Effect / %": 9.33}
{"compound": "Cc1nc(CN2CCc3cncnc3C2)oc1C", "Percent Effect / %": 2.74}
{"compound": "Cc1ccc(C(NC(=O)CC2CCN(C(C)C)CC2)C(=O)O)cc1 (stereo not given)", "Percent Effect / %": 2.7}
{"compound": "Cc1ccc(NC(=O)NCCCc2n[nH]c(N)c2C#N)cc1", "Percent Effect / %": 15.2}

Now take the following compound into account.
Please look up its Percent Effect: CC(C)c1nc(CN(C)CC2CCN(CCO)CC2)no1
0

---

# target.or.test.system: Protein translocase subunit SecA (Escherichia coli (strain K12)) (UniProt P10408)
# Sequence (P10408 whole entry): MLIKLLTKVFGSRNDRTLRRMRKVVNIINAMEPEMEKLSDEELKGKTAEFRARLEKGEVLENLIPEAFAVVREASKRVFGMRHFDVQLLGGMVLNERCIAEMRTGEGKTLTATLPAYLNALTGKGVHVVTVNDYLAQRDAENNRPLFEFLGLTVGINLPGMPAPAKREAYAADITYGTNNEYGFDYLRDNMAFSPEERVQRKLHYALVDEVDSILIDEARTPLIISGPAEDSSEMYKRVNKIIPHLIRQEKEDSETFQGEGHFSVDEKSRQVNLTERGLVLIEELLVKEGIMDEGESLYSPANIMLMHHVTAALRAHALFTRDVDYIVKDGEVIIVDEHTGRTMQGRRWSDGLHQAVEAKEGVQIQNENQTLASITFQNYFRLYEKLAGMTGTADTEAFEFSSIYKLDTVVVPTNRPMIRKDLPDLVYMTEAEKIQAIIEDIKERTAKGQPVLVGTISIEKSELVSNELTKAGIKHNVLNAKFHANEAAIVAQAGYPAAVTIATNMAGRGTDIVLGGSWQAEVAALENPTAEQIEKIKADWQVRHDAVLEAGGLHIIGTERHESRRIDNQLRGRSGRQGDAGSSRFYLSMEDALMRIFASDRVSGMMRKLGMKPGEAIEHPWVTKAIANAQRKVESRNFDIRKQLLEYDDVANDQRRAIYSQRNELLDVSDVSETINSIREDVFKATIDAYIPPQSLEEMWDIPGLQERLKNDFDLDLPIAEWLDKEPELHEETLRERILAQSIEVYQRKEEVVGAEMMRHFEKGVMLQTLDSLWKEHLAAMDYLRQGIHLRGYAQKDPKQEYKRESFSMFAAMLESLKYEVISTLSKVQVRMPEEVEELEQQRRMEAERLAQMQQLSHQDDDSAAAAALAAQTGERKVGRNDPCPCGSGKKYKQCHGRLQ
# protocol.details: Assay to Identify E. coli SecA ATPase Inhibitors
# Type: functional
# Set-up: scale not given: direction of the effect not stated beside the values
# study.conditions: 30 µM
Entries with a potency or affinity are not part of this list.
value.type: Percent Effect

These solved cases illustrate the format of a correct answer.
{"compound": "CC(NC(=O)NCCCn1cccn1)c1cccnc1 (stereo unspecified)", "Percent Effect": "-4.3%"}
{"compound": "CCOCCCNC(=O)c1cn(CC)nc1C", "Percent Effect": "-3.21%"}
{"compound": "O=C(CCn1cnnc1)N1CCCC(c2ncc[nH]2)C1 (stereo unspecified)", "Percent Effect": "1.63%"}
{"compound": "Cc1cc(C)n(CC2CCCN2C(=O)CCc2cscn2)n1 (stereo unspecified)", "Percent Effect": "-2.42%"}
{"compound": "CC(=O)N1CCC2(CC1)CC[C@@]1(C(=O)N(C)C)CN(S(C)(=O)=O)C[C@@H]21", "Percent Effect": "0.456%"}

Now take the following compound into account.
Please look up its Percent Effect: CCN1CCC(NC(=O)CN2CCCCC2Cn2cc(C)cn2)CC1 (stereo unspecified)
3.6%

---

# target.or.test.system: Tyrosyl-tRNA synthetase, putative (Trypanosoma cruzi (strain CL Brener))
# protocol.details: Trypanosoma cruzi tyrosyl tRNA synthetase (TcYRS) _High Tyrosine SOP; further: in the data most compounds retested in dose-response had high values
# Format: functional
# Parameters: scale not given: direction of the effect not stated beside the values
# study.conditions: 30 µM
value.type: Percent Effect (%)
Quick note: give the figure in %, leave out the unit.

These solved cases illustrate the format of a correct answer.
{"compound": "COCc1nc2n(n1)CCCC2Nc1nc(C2CC2)ns1 (stereo not drawn)", "Percent Effect / %": 4.92}
{"compound": "COc1ccc(CN2CCC3(CC(=O)N(c4cncnc4)C3)C2)cc1 (stereo not drawn)", "Percent Effect / %": 1.08}

Please look up its Percent Effect: COCc1cc(NCc2cc(F)ccc2F)n2nccc2n1
2.15

Same for Cc1ccc(C)c(C(NC(=O)C(C)(C)C)c2cccnc2)c1 (stereo not drawn)
4.23

Same for COc1ncccc1NC(=O)N(Cc1ccc(C)o1)C1CC1
6.8

Same for CC(C)CCn1c(=O)nc2n1C(=O)N(c1ccc(F)cc1)C2
-2.13

Same for CCc1nc(NS(=O)(=O)c2cc(C)ccc2F)no1
2.73

---

# target.or.test.system: Proteasome subunit beta (Trypanosoma cruzi) (UniProt O96673)
# Sequence (whole entry): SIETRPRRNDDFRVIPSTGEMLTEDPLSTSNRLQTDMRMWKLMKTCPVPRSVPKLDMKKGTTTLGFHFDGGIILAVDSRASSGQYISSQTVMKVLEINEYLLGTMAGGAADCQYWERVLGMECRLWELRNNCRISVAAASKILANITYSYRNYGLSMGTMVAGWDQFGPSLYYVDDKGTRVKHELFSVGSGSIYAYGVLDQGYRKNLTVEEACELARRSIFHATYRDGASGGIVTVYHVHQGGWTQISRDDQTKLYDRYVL
# protocol.details: Trypanosoma cruzi proteasome chymotrypsin-like activity (TcProtChymo) assay. Further: in the data most compounds retested in dose-response had high values.
# Format: functional
# Set-up: scale not given: direction of the effect not stated beside the values
# study.conditions: 9.37 µM
value.type: Percent Effect (%)
Quick note: give the figure in %, leave out the unit.

These solved cases illustrate the format of a correct answer.
{"molecule": "c1csc(CN2CCn3c(Cn4cncn4)cnc3C2)n1", "unit.string": "%", "Percent Effect": 6.08}
{"molecule": "CCN1CCC(c2nc3ccc(NC(C)C)cn3n2)CC1", "unit.string": "%", "Percent Effect": 4.48}

Please look up its Percent Effect: COCCN(C)C(=O)c1ccc(OC)cc1O
18.2

Same for O=C(NCc1ccccc1)N1CCC2(CC(=O)N(c3ccsc3)C2)C1 (configuration not stated)
2.45

Same for CS(=O)(=O)N1Cc2nccn2CC(Cn2ncccc2=O)C1 (configuration not stated)
7.18

Same for N#Cc1ccc(OCCCN2CCc3cncnc3C2)cc1
-6.14

Same for CCn1cnnc1CNC(=O)N1CCCN(C(C)=O)CC1
12.7
